These entries and their values trace back to ChEMBL document CHEMBL1147581.

Assay: Stability of the peptide in the presence of mouse serum
Type: ADME, organism-based
Residues, ends and D or L forms follow the SMILES beside them. *: point of attachment. Bz = O=C(c1ccccc1)*

{"compound": "CC[C@H](C)[C@H](NC(=O)[C@H](Cc1ccc(O)cc1)NC(=O)[C@H](CCCCN)NC(=O)[C@H](CCCCN)NC(=O)c1ccccc1)C(=O)N[C@@H](CCCCN)C(=O)N[C@H](C(=O)N[C@@H](Cc1ccccc1)C(=O)N[C@H](C(=O)N[C@@H](Cc1ccccc1)C(=O)N[C@@H](CCCCN)C(N)=O)C(C)C)C(C)C (Bz-KKYIKVFVFK-NH2)", "half-life [min]": 30}

----------
Test system: Escherichia coli
Assay: Minimum inhibitory concentration against Escherichia coli ATCC 25922
Assay type: functional
Residues, ends and D or L forms follow the SMILES beside them.
Reported MIC by item:
measure: MIC (µg/mL)

{"molecule": "CC(C)[C@H](NC(=O)[C@H](CS)NC(=O)[C@@H](NC(=O)[C@H](CCCN=C(N)N)NC(=O)[C@H](CCCCN)NC(=O)CNC(=O)[C@H](CC(N)=O)NC(=O)[C@H](CS)NC(=O)[C@H](Cc1ccc(O)cc1)NC(=O)[C@H](Cc1ccccc1)NC(=O)[C@@H](N)CCCCN)C(C)C)C(=O)N[C@@H](CS)C(=O)N[C@@H](CCCN=C(N)N)C(N)=O (H-KFYCNGKRVCVCR-NH2)", "units": "µg/mL", "assay value": 25}
{"molecule": "CC(C)[C@H](NC(=O)[C@H](CS)NC(=O)[C@@H](NC(=O)[C@H](CCCN=C(N)N)NC(=O)[C@H](CCCCN)NC(=O)CNC(=O)[C@H](CC(N)=O)NC(=O)[C@H](CS)NC(=O)[C@H](Cc1ccc(O)cc1)NC(=O)[C@@H](N)Cc1ccccc1)C(C)C)C(=O)N[C@@H](CS)C(=O)N[C@@H](CCCN=C(N)N)C(N)=O (H-FYCNGKRVCVCR-NH2)", "units": "µg/mL", "assay value": 25}
{"molecule": "CC(C)[C@H](NC(=O)[C@H](CS)NC(=O)[C@@H](NC(=O)[C@H](CCCN=C(N)N)NC(=O)[C@H](CCCCN)NC(=O)CNC(=O)[C@H](CC(N)=O)NC(=O)[C@H](CS)NC(=O)[C@H](Cc1ccc(O)cc1)NC(=O)[C@@H](N)CCCCN)C(C)C)C(=O)N[C@@H](CS)C(=O)N[C@@H](CCCN=C(N)N)C(N)=O (H-KYCNGKRVCVCR-NH2)", "units": "µg/mL", "assay value": 50}
{"molecule": "CC(C)[C@H](NC(=O)[C@H](CS)NC(=O)[C@@H](NC(=O)[C@H](CCCN=C(N)N)NC(=O)[C@H](CCCCN)NC(=O)CNC(=O)[C@H](CC(N)=O)NC(=O)[C@H](CS)NC(=O)[C@@H](N)Cc1ccc(O)cc1)C(C)C)C(=O)N[C@@H](CS)C(=O)N[C@@H](CCCN=C(N)N)C(N)=O (H-YCNGKRVCVCR-NH2)", "units": "µg/mL", "assay value": 12.5}
{"molecule": "CC(C)[C@H](NC(=O)[C@H](CS)NC(=O)[C@@H](NC(=O)[C@H](CCCN=C(N)N)NC(=O)[C@H](CCCCN)NC(=O)CNC(=O)[C@H](CC(N)=O)NC(=O)[C@H](CS)NC(=O)[C@H](Cc1ccc(O)cc1)NC(=O)[C@H](CCCCN)NC(=O)[C@@H](N)CCCCN)C(C)C)C(=O)N[C@@H](CS)C(=O)N[C@@H](CCCN=C(N)N)C(N)=O (H-KKYCNGKRVCVCR-NH2)", "units": "µg/mL", "assay value": 25}
